- Test system: 276233-004-R-J1-PDC KRAS spheroids with HUVEC/MSC, viability
- ASSAY_NAME: Anticancer human tumor 276233-004-R-J1-PDC patient-derived colon adenocarcinoma cell line growth inhibition [KRAS2]
- RUN_CONDITIONS: second compound 0.1 µM; first compound 10 µM; stronger effect = lower value
- Excerpt: Multicellular complex tumor spheroid response to RAS pathway inhibitors in combination with a targeted agents in patient-derived cell lines with oncogenic KRAS variants from multiple cancer types A high-throughput screen of multi-cell type tumor spheroids was designed to identify active combinations of targeted small molecules and KRAS pathway inhibitors. […] Compounds. […] If the clinical Cmax for an agent had not been determined, the highest concentration tested was 10 microM. […]
READOUT_TYPE: viability, T/C (%)
Supply the numeric figure in %, leaving out any unit text.

Can you share its viability, T/C? I mean this compound: COc1cc2nccc(Oc3ccc(NC(=O)C4(C(=O)Nc5ccc(F)cc5)CC4)cc3)c2cc1OC + COc1cc2nc(C)nc(NC(C)c3cc(N)cc(C(F)(F)F)c3)c2cc1OC1CCOC1
98.8

---

Listed next: entries and their corresponding viability, T/C.
- Tested on: 276233-004-R-J1-PDC KRAS spheroids with HUVEC/MSC, viability
- ASSAY_NAME: Anticancer human tumor 276233-004-R-J1-PDC cell line growth inhibition [KRAS2];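 note: cells exposed to agents for seven days before viability read; 100% = DMSO vehicle control wells and lower values mean fewer viable cells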
- RUN_CONDITIONS: second compound 0.1 µM; first compound 0.0316 µM; stronger effect = lower value
Supply the numeric figure in %, leaving out any unit text.

In the examples that follow, each entry is paired with its recorded viability, T/C.
[[record]]
molecule = "CCNC(=O)CC1N=C(c2ccc(Cl)cc2)c2cc(OC)ccc2-n2c(C)nnc21 (stereo not drawn) + COc1cc2nc(C)nc(NC(C)c3cc(N)cc(C(F)(F)F)c3)c2cc1OC1CCOC1"
readout_type = "viability, T/C"
observed_value = 101

[[record]]
molecule = "CC1COCCN1c1cc(-c2ccnn2C)c2ccnc(-c3ccn[nH]3)c2n1 (stereo not drawn) + C=CC(=O)N1CCN(c2nc(OCC3CCCN3C)nc3c2CCN(c2cccc4cccc(C)c24)C3)CC1CC#N"
readout_type = "viability, T/C"
observed_value = 95.3


Okay, now this molecule:
Can you share its viability, T/C? I mean this molecule: COc1cc2nccc(Oc3ccc(NC(=O)C4(C(=O)Nc5ccc(F)cc5)CC4)cc3)c2cc1OC + C=CC(=O)N1CCN(c2nc(=O)n(-c3c(C)ccnc3C(C)C)c3nc(-c4c(O)cccc4F)c(F)cc23)C(C)C1
93.5

---

Listed next: entries and their corresponding viability, T/C.
- Test system: 276233-004-R-J1-PDC KRAS spheroids with HUVEC/MSC, viability
- ASSAY_NAME: Anticancer human tumor 276233-004-R-J1-PDC cell line growth inhibition [KRAS2];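 note: cells exposed to agents for seven days before viability read; 100% = DMSO vehicle control wells and lower values mean fewer viable cells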
- RUN_CONDITIONS: second compound 0.316 µM; first compound 0.1 µM; stronger effect = lower value
- Source text: Multicellular complex tumor spheroid response to RAS pathway inhibitors in combination with a targeted agents in patient-derived cell lines with oncogenic KRAS variants from multiple cancer types A high-throughput screen of multi-cell type tumor spheroids was designed to identify active combinations of targeted small molecules and KRAS pathway inhibitors. […] Compounds. […] If the clinical Cmax for an agent had not been determined, the highest concentration tested was 10 microM. […]

[[record]]
molecule = "COC(=O)c1ccc2c(C(=Nc3ccc(N(C)C(=O)CN4CCN(C)CC4)cc3)c3ccccc3)c(O)[nH]c2c1 + C=CC(=O)N1CCN(c2nc(=O)n(-c3c(C)ccnc3C(C)C)c3nc(-c4c(O)cccc4F)c(F)cc23)C(C)C1"
observed_value = "80.5%"

[[record]]
molecule = "COC(=O)c1ccc2c(C(=Nc3ccc(N(C)C(=O)CN4CCN(C)CC4)cc3)c3ccccc3)c(O)[nH]c2c1 + CNCc1ccccc1-c1csc(C(C)Nc2nc(C)nc3cc(OC)c(OC)cc23)c1"
observed_value = "91.7%"


Okay, now this molecule:
Can you share its viability, T/C? I mean this molecule: CC(C)NCC(C(=O)N1CCN(c2ncnc3c2C(C)CC3O)CC1)c1ccc(Cl)cc1 (stereo not drawn) + COc1cc2nc(C)nc(NC(C)c3cc(N)cc(C(F)(F)F)c3)c2cc1OC1CCOC1
78.6%
